Data provenance is ChEMBL document CHEMBL6153138.

tested on: MCF7; assay: Growth inhibition of human MCF7 cells at 5 uM incubated for 48 hrs by CCK-8 method relative to control; format: functional; conditions: read-out: GI
property-label: inhibition of growth at 5 µM (%)
Value expressed in %; do not type the unit.

# count of solved cases: 3
Enquiry: Quick check: inhibition of growth at 5 µM on MCF7, item "Cc1n(C[C@H](Cc2ccccc2)NC(=O)Nc2cc(C(F)(F)F)cc(C(F)(F)F)c2)cc[n+]1Cc1ccccc1" ?
Return: 40.5

Enquiry: Missing value: inhibition of growth at 5 µM, MCF7, entry "O=C(Nc1cc(C(F)(F)F)cc(C(F)(F)F)c1)N[C@@H](Cc1ccccc1)Cn1cc[n+](Cc2ccccc2)c1" . Fill in?
Return: 82

Enquiry: Kindly state the measured inhibition of growth at 5 µM obtained for "CC[C@@H](C)[C@@H](Cn1cc(C(F)(F)F)[n+](Cc2ccccc2)c1)NC(=O)Nc1cc(C(F)(F)F)cc(C(F)(F)F)c1" with MCF7.
Return: 100

Let us examine a further case.
Enquiry: I'm curious: which inhibition of growth at 5 µM was measured for "CC(C)[C@@H](Cn1cc[n+](Cc2ccccc2)c1)NC(=O)Nc1cc(C(F)(F)F)cc(C(F)(F)F)c1" tested on MCF7?
Return: 55.7
